Listing of entries alongside the reported Raw Signal.
# system_under_test: Human IP6K1 (Homo sapiens)
# Construct: GST (N, cleaved yes); made in house; host or cells: C43 E. coli, pGEX-6P-2
# Sequence (Q92551 whole entry): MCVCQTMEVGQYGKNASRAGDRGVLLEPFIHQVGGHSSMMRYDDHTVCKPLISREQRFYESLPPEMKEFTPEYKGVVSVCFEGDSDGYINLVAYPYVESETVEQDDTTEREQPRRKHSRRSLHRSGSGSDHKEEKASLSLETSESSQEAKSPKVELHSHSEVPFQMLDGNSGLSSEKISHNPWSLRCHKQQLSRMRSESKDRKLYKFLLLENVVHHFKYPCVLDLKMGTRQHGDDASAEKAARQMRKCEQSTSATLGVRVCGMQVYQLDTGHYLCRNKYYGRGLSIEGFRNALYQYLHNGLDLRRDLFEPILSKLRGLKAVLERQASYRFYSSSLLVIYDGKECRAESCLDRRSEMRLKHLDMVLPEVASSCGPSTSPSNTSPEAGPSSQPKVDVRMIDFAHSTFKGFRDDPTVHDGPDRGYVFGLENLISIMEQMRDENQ
# test_name: IP6K1 high-throughput screen of the Sigma LOPAC (ADP-Glo Max, single point);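 note: final compound concentration 10µM in 5% DMSO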
# Format: biochemical
# run_conditions: LOPAC single-point screen, ADP-Glo Max raw signal per well

Take a look at these entries with their results.
INSERT INTO results (molecule, system_under_test, value_reported) VALUES
  ('Nc1nc(Nc2ccccc2)nc2c1ncn2[C@@H]1O[C@H](CO)[C@@H](O)[C@H]1O', 'Human IP6K1 (Homo sapiens)', 55292),
  ('O=P(O)(O)C(Cl)(Cl)P(=O)(O)O', 'Human IP6K1 (Homo sapiens)', 56368),
  ('C[C@@H]1C(=O)NC2=Nc3cccc(Cl)c3CN21', 'Human IP6K1 (Homo sapiens)', 53682);

Please give the measured Raw Signal for this molecule: CC(N)(C(=O)O)c1ccc(C(=O)O)cc1 (racemic) [(±)-alpha-Methyl-4-carboxyphenylglycine]
51961
